- Tested on: Pseudomonas aeruginosa LL-1244
- Protocol Details: in vitro antibacterial MIC, agar plate dilution
- Assay type: cell-based
- Condition Parameters: Pseudomonas aeruginosa, LL1244, 18 h, 35° C., read-out: MIC
As shown below, each of these molecules has a reported MIC value.
Please reply with the bare figure in µg/mL and do not write the unit itself.

[[record]]
molecule = "O=C(O)c1cn(-c2ccc(F)cc2)c2cc(N3CCNC(c4ccco4)C3)c(F)cc2c1=O (stereo not shown)"
target_desc = "Pseudomonas aeruginosa LL-1244"
measured_result = 4

[[record]]
molecule = "CCn1cc(C(=O)O)c(=O)c2c(F)c(F)c(N3CCSCC3)c(F)c21"
target_desc = "Pseudomonas aeruginosa LL-1244"
measured_result = 64


Query molecule follows.
MIC reading for CCn1cc(C(=O)O)c(=O)c2cc(F)c(N3CCN(C)CC3)c(F)c21 : 4

###

- Tested on: Serratia marcescens F 0-35
- Protocol Details: in vitro antibacterial MIC, agar plate dilution
- Assay type: cell-based
- Condition Parameters: Serratia marcescens, F035, 18 h, 35° C., read-out: MIC
With a cut-off of 0.5 µg/mL, any MIC strictly below it is called Criterion met; any MIC meeting it or above is called Criterion not met.

Solved entries:
[[record]]
molecule = "CCn1cc(C(=O)O)c(=O)c2c(F)c(F)c(N3CCSCC3)c(F)c21"
target_desc = "Serratia marcescens F 0-35"
assigned_label = "Criterion not met"

[[record]]
molecule = "CCn1cc(C(=O)O)c(=O)c2cc(F)c(N3CCNC(c4ccco4)C3)cc21 (centres unmarked)"
target_desc = "Serratia marcescens F 0-35"
assigned_label = "Criterion not met"

[[record]]
molecule = "O=C(O)c1cn(-c2ccc(F)cc2)c2cc(N3CCNC(c4ccco4)C3)c(F)cc2c1=O (centres unmarked)"
target_desc = "Serratia marcescens F 0-35"
assigned_label = "Criterion not met"

[[record]]
molecule = "CN1CCN(c2cc3c(cc2F)c(=O)c(C(=O)O)cn3C2CC2)CC1c1ccsc1 (centres unmarked)"
target_desc = "Serratia marcescens F 0-35"
assigned_label = "Criterion not met"

[[record]]
molecule = "CCn1cc(C(=O)O)c(=O)c2cc(F)c(N3CCN(C)CC3)c(F)c21"
target_desc = "Serratia marcescens F 0-35"
assigned_label = "Criterion met"


Hello, I'm reviewing records and need to know if MIC of CCn1cc(C(=O)O)c(=O)c2cc(F)c(N3CCNC(c4ccc(C)s4)C3)cc21 (centres unmarked) is below 0.5 µg/mL. Could you check? Criterion not met

Threshold test, MIC < 0.5 µg/mL: O=C(O)c1cn(C2CC2)c2cc(N3CCNC(c4ccsc4)C3)c(F)cc2c1=O (centres unmarked) Criterion met

Please check: MIC for O=C(O)c1cn(C2CC2)c2cc(N3CCNC(c4ccco4)C3)c(F)cc2c1=O (centres unmarked) , strictly under 0.5 µg/mL or not? Criterion met

Does this molecule meet the criterion MIC < 0.5 µg/mL? CCCCCCCCCCCCOCC1CN(c2cc3c(cc2F)c(=O)c(C(=O)O)cn3CC)CCN1C (centres unmarked) Criterion not met

Could you please tell me whether MIC recorded for CCn1cc(C(=O)O)c(=O)c2cc(F)c(N3CCNC(CNC)C3)cc21.Cl.Cl (centres unmarked) is less than 0.5 µg/mL? Criterion not met

###

- System: Enterobacter cloacae K 84-10
- Protocol Details: in vitro antibacterial MIC, agar plate dilution
- Assay type: cell-based
- Condition Parameters: Enterobacter cloacae, K8410, 18 h, 35° C., read-out: MIC
Below, each entry is listed alongside its reported MIC.
Numeric answer only, unit µg/mL assumed.

Here is how some compounds turned out for MIC.
[[record]]
compound = "CCn1cc(C(=O)O)c(=O)c2cc(F)c(N3CCN(C)CC3)c(F)c21"
experimental_readout = "MIC"
measured_result = 0.03

[[record]]
compound = "CCn1cc(C(=O)O)c(=O)c2cc(F)c(N3CCNC(CF)C3)c(F)c21 (racemic) [Example 63]"
experimental_readout = "MIC"
measured_result = 0.12

[[record]]
compound = "CCCCCCOCC1CN(c2cc3c(cc2F)c(=O)c(C(=O)O)cn3CC)CCN1 (centres unmarked)"
experimental_readout = "MIC"
measured_result = 4

[[record]]
compound = "CCn1cc(C(=O)O)c(=O)c2cc(F)c(N3CCNC(c4ccco4)C3)cc21 (centres unmarked)"
experimental_readout = "MIC"
measured_result = 0.25

[[record]]
compound = "CCn1cc(C(=O)O)c(=O)c2cc(F)c(N3CCNC(CNC)C3)cc21.Cl.Cl (centres unmarked)"
experimental_readout = "MIC"
measured_result = 8


Next compound, MIC to be filled in.
MIC value, target or system Enterobacter cloacae K 84-10, for CN1CCN(c2cc3c(cc2F)c(=O)c(C(=O)O)cn3C2CC2)CC1c1ccsc1 (centres unmarked) : 0.12
